# test target: recombinant human GBA (beta-glucocerebrosidase) (Homo sapiens, UniProt P04062)
# Sequence (P04062 40-536): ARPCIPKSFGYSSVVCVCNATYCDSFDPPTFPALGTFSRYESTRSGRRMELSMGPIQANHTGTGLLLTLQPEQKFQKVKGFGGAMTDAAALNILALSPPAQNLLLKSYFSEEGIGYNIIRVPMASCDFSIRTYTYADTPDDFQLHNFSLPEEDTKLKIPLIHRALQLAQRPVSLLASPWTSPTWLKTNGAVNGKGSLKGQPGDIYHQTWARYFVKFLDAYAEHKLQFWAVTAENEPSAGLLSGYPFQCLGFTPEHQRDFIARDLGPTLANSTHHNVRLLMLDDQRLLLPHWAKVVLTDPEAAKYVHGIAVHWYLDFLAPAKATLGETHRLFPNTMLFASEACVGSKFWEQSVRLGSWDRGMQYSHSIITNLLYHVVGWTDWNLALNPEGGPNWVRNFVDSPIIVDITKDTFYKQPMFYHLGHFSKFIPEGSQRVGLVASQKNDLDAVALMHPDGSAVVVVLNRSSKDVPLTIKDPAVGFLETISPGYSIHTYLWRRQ
# method description: Beta-glucocerebrosidase (GBA, glucosylceramidase) assay (4-methylumbelliferyl-beta-D-pyranoside substrate, fluorescence)
# pIC50 per entry
The read-out pIC50 is expressed as -log10 of concentration in moles per litre.

Answered examples (3):
O=C(O)c1cc(Cl)cc(NCCc2ccc(CCN3C[C@H](O)[C@@H](O)[C@H](O)[C@H]3CO)cc2)c1	4.74
COCCCCCN(CCCNc1ccc(N=[N+]=[N-])cc1[N+](=O)[O-])CCCN1C[C@H](O)[C@@H](O)[C@H](O)[C@H]1CO	7.24
[N-]=[N+]=Nc1ccc(NCCNS(=O)(=O)NCCN2C[C@H](O)[C@@H](O)[C@H](O)[C@H]2CO)c([N+](=O)[O-])c1	5.66

[ask] Indicate the recorded pIC50 value for this molecule: Cc1cc(-c2ccco2)ccc1NCc1ccc(CN2C[C@H](O)[C@@H](O)[C@H](O)[C@H]2CO)cc1
[reply] 4.47

[ask] Query pIC50 for Cc1cc(NCc2cccc(CN3C[C@H](O)[C@@H](O)[C@H](O)[C@H]3CO)c2)cc(-c2cccnn2)c1
[reply] 4.04

[ask] Provide only the value of recorded pIC50 for O=C(O)c1cc(NCCCCCCN2C[C@H](O)[C@@H](O)[C@H](O)[C@H]2CO)cc(-c2ncccn2)c1
[reply] 5.61

###

# test target: recombinant alpha-glucosidase I (human full-length glucosidase I, Glu 1) (Homo sapiens, UniProt Q13724)
# Construct: 6-His (C); made in house; host or cells: HEK-293T cells transduced with BacMam virus (virus raised in Sf9)
# Sequence (Q13724 whole entry): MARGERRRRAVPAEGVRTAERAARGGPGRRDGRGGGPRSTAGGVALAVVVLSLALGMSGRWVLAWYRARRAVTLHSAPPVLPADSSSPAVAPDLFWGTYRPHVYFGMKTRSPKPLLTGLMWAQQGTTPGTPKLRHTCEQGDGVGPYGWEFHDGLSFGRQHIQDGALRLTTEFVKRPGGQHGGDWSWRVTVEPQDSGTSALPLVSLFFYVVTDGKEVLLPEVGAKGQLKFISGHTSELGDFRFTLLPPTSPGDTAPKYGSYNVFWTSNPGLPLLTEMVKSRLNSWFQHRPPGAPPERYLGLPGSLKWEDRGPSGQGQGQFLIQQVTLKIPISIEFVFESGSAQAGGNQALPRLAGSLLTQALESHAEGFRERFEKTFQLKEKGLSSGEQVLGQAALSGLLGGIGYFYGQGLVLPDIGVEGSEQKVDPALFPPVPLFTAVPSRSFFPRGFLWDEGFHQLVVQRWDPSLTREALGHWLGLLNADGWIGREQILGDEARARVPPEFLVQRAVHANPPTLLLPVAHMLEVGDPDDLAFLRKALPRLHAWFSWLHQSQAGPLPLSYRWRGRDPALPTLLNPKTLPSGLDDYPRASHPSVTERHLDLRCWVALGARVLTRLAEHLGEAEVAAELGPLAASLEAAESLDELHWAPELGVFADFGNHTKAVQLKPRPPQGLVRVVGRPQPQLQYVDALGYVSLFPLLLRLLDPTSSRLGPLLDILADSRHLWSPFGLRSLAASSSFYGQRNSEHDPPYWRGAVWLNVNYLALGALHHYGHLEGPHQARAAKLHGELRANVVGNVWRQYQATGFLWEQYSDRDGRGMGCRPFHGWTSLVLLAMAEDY
# method description: Alpha-glucosidase I assay (Amplex Red glucose detection, synthetic trisaccharide substrate)
# Type: biochemical
# reported conditions: Glucosidase 1; read-out: Glu 1 IC50
Parameter: pIC50. Scope: all listed entries.
FYI, pIC50 means -log10 of a concentration in mol per litre.

[N-]=[N+]=Nc1ccc(NCCN(CCC(N)=O)CCN2C[C@H](O)[C@@H](O)[C@H](O)[C@H]2CO)c([N+](=O)[O-])c1	5.09
O=[N+]([O-])c1cc(N2CC3CC2CO3)ccc1NCc1ccc(CN2C[C@@H](O)[C@H](O)[C@@H](O)[C@@H]2CO)cc1 (stereo in doubt)	8.05

[ask] Please indicate pIC50 recorded for Cc1cc(NCc2ccc(CN3C[C@H](O)[C@@H](O)[C@H](O)[C@H]3CO)cc2)cc(-n2ccnn2)c1
[reply] 7.96
